All values here come from patent US20210101970A1.

Parameter: ADCC Activity Average EC50, NHP B Cells. Scope: all listed entries.
Target: T1, cynomolgus monkey CXCR5 (cynomolgus monkey, UniProt P32302 1-372 (human entry))
T1 chain: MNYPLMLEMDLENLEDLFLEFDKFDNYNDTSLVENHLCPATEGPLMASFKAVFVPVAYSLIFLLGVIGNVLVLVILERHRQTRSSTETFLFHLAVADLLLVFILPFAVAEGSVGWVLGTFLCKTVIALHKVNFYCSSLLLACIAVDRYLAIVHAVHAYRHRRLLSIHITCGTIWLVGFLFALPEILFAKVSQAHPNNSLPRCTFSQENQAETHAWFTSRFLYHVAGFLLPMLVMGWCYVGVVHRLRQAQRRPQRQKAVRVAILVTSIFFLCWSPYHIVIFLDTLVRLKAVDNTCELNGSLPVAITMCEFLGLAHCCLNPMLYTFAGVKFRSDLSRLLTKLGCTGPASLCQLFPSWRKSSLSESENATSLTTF
Assay: cell-based or functional assay

{"binder": "Humanized 11G2 153/155 (antibody, human IgG1, V domains shown, also called h11G2 VH (XC155)/VL (XC153)) VH: EVQLVESGGGLVQPGGSLRLSCAASGFTFTDFYMSWVRQAPGKGLEWVGFIRNKANGYTTEYSASVKGRFTISRDNAKNSLYLQMNSLRAEDTAVYYCARVYGSTLHYWGQGTLVTVSS VL: DIQMTQSPSSLSASVGDRVTITCRASESVEYHGTSLMHWYQQKPGKAPKLLIYAASNVESGVPSRFSGSGSGTDFTLTISSLQPEDFATYFCQQSRKVPWTFGQGTKVEIK", "ADCC Activity Average EC50, NHP B Cells, nM": 0.0207}
{"binder": "Afucosyl humanized 11G2 154/155 (antibody, human IgG1, kappa, V domains shown, afucosylated Fc glycan (Asn297), also called afucosyl h11G2 XC154/XC155; afucosylated h11G2 VL XC154/VH XC155) VH: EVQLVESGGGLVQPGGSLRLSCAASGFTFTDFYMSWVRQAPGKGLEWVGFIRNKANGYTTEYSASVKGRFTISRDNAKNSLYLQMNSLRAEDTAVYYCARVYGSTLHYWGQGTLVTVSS VL: DIQMTQSPSSLSASVGDRVTITCRASESVEYHGTSLMHWYQQKPGKAPKLLIYAASNVESGVPSRFSGSGSGTDFTLTISSLQPEDFATYYCQQSRKVPWTFGQGTKVEIKR", "ADCC Activity Average EC50, NHP B Cells, nM": 0.0153}
{"binder": "Chimeric 11G2 (antibody, human IgG1, kappa, V domains shown, mouse V regions on human IgG1/kappa; also called 11G2 (chimeric)) VH: EVKLVESGGGLVQPGGSLRLSCATSGFTFTDFYMSWVRQPPGRALEWLGFIRNKANGYTTEYSASVKGRFTISRDNSQSILYLQMNTLRAGDSATYYCVRVYGSTLHYWGQGTILTVSS VL: DVVVTQSPDSLAVSLGQRATISCRASESVEYHGTSLMHWYQQKPGQPPKLLIYAASNVESGVPARFSGSGSGTDFSLNIHPVEEGDIAMYFCQQSRKVPWTFGGGTKLEIKR", "ADCC Activity Average EC50, NHP B Cells, nM": 0.115}
{"binder": "Humanized 11G2 154/155 (antibody, human IgG1, kappa, V domains shown, fucosylated human IgG1/kappa; also called h11G2 VL XC154/VH XC155) VH: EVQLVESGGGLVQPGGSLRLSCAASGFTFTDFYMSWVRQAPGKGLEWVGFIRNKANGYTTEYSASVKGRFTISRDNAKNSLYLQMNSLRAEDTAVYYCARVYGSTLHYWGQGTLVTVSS VL: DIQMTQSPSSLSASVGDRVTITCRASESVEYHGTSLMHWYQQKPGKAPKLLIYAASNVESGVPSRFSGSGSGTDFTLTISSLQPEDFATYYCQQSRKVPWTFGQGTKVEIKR", "ADCC Activity Average EC50, NHP B Cells, nM": 0.0391}
